MEASUREMENT TARGET: Cyclophilin A (Homo sapiens)
Construct: made in house
TEST METHOD NOTES: AlphaLISA inhibition of binding of biotinylated Cyclosporin A to FLAG tagged Cyclophilin A
EXPERIMENTAL SETUP: test concentration not given
Where a SMILES comes first, the peptide text is derived from it. [ ]: non-standard residue; d: D form. MeBmt = C/C=C/C[C@@H](C)[C@@H](O)[C@H](NC)C(=O)O; NMeF = CN[C@@H](Cc1ccccc1)C(=O)O; NMeI = CC[C@H](C)[C@H](NC)C(=O)O; NMeL = CN[C@@H](CC(C)C)C(=O)O; dNMeV = CN[C@@H](C(=O)O)C(C)C; NMeNle = CCCC[C@H](NC)C(=O)O; NMeV = CN[C@H](C(=O)O)C(C)C; NMeA = CN[C@@H](C)C(=O)O; Abu = CC[C@H](N)C(=O)O; Sar = CNCC(=O)O
Reported values of % inhibition of CsA binding to Cyclophilin A for individual entries
Supply the numeric figure in %, leaving out any unit text.

Please give the measured % inhibition of CsA binding to Cyclophilin A for this compound: C/C=C/C[C@@H](C)[C@@H](O)[C@H]1C(=O)N[C@@H](CC)C(=O)N(C)CC(=O)N(C)[C@@H]([C@@H](C)CC)C(=O)N[C@@H](C(C)C)C(=O)N(C)[C@@H](CC(C)C)C(=O)N[C@@H](CC)C(=O)N[C@H](C)C(=O)N(C)[C@@H](CC(C)C)C(=O)N(C)[C@@H](CC(C)C)C(=O)N(C)[C@@H](C(C)C)C(=O)N1C [Compound C93] (cyclo([Abu][Sar][NMeI]V[NMeL][Abu][dA][NMeL][NMeL][NMeV][MeBmt])) 98.72

Fill in: % inhibition of CsA binding to Cyclophilin A of C/C=C/C[C@@H](C)[C@@H](O)[C@H]1C(=O)N[C@@H](CC)C(=O)N(C)CC(=O)N(C)[C@@H](CCCC)C(=O)N[C@@H](CC(C)C)C(=O)N(C)[C@@H](CC(C)C)C(=O)N[C@@H](CC(C)C)C(=O)N[C@H](C)C(=O)N(C)[C@@H](CC(C)C)C(=O)N(C)[C@@H](CC(C)C)C(=O)N(C)[C@@H](C(C)C)C(=O)N1C [Compound C68] (cyclo([MeBmt][Abu][Sar][NMeNle]L[NMeL]L[dA][NMeL][NMeL][NMeV])) is ___ 79.54

Item under review: C/C=C/C[C@@H](C)[C@@H](O)[C@H]1C(=O)N[C@@H](CC)C(=O)N(C)CC(=O)N(C)[C@H](C(C)C)C(=O)N[C@@H](C(C)C)C(=O)N(C)[C@@H](C)C(=O)N[C@@H](CC(C)C)C(=O)N[C@H](C)C(=O)N(C)[C@@H](CC(C)C)C(=O)N(C)[C@@H](CC(C)C)C(=O)N(C)[C@@H](C(C)C)C(=O)N1C [Compound C91] (cyclo([Abu][Sar][dNMeV]V[NMeA]L[dA][NMeL][NMeL][NMeV][MeBmt])) . Reported % inhibition of CsA binding to Cyclophilin A? 94.83

Given the entry C/C=C/C[C@@H](C)[C@@H](O)[C@H]1C(=O)N[C@@H](CC)C(=O)N(C)CC(=O)N(C)CC(=O)N[C@@H](C)C(=O)N(C)CC(=O)N[C@@H](C)C(=O)N[C@H](C)C(=O)N(C)[C@@H](CC(C)C)C(=O)N(C)[C@@H](CC(C)C)C(=O)N(C)[C@@H](C(C)C)C(=O)N1C [Compound C21] (cyclo([MeBmt][Abu][Sar][Sar]A[Sar]A[dA][NMeL][NMeL][NMeV])) , report its measured % inhibition of CsA binding to Cyclophilin A. 68.92

Now turn to the next compound.
// query % inhibition of CsA binding to Cyclophilin A value for entry C/C=C/C[C@@H](C)[C@@H](O)[C@H]1C(=O)N[C@@H](CC)C(=O)N(C)CC(=O)N(C)[C@@H](Cc2ccccc2)C(=O)N[C@@H](C(C)C)C(=O)N(C)[C@@H](CC(C)C)C(=O)N[C@@H](CC(C)C)C(=O)N[C@H](C)C(=O)N(C)[C@@H](CC(C)C)C(=O)N(C)[C@@H](CC(C)C)C(=O)N(C)[C@@H](C(C)C)C(=O)N1C [Compound C48] (cyclo([MeBmt][Abu][Sar][NMeF]V[NMeL]L[dA][NMeL][NMeL][NMeV])) 84.28

* * *

// reported % inhibition of CsA binding to Cyclophilin A per item
MEASUREMENT TARGET: Cyclophilin A (Homo sapiens)
Construct: made in house
TEST METHOD NOTES: AlphaLISA inhibition of binding of biotinylated Cyclosporin A to FLAG tagged Cyclophilin A
EXPERIMENTAL SETUP: test concentration not given
Where a SMILES comes first, the peptide text is derived from it. [ ]: non-standard residue; d: D form. MeBmt = C/C=C/C[C@@H](C)[C@@H](O)[C@H](NC)C(=O)O; NMeY = CN[C@@H](Cc1ccc(O)cc1)C(=O)O; NMeL = CN[C@@H](CC(C)C)C(=O)O; Tle = CC(C)(C)[C@H](N)C(=O)O; NMeV = CN[C@H](C(=O)O)C(C)C; NMeA = CN[C@@H](C)C(=O)O; dNMeA = CN[C@H](C)C(=O)O; Abu = CC[C@H](N)C(=O)O; Sar = CNCC(=O)O
Numbers only here, please. The scale is %.

Use the examples below as a reference point.
State the recorded % inhibition of CsA binding to Cyclophilin A for this entry: C/C=C/C[C@@H](C)[C@@H](O)[C@H]1C(=O)N[C@@H](CC)C(=O)N(C)CC(=O)N(C)[C@@H](C)C(=O)N[C@@H](CC(C)C)C(=O)N(C)[C@@H](CC(C)C)C(=O)N[C@@H](CC(C)C)C(=O)N[C@H](C)C(=O)N(C)[C@@H](CC(C)C)C(=O)N(C)[C@@H](CC(C)C)C(=O)N(C)[C@@H](C(C)C)C(=O)N1C [Compound C58] (cyclo([MeBmt][Abu][Sar][NMeA]L[NMeL]L[dA][NMeL][NMeL][NMeV])) 96.72

So what does the record say about % inhibition of CsA binding to Cyclophilin A for C/C=C/C[C@@H](C)[C@@H](O)[C@H]1C(=O)N[C@@H](CC)C(=O)N(C)CC(=O)N(C)[C@H](C)C(=O)N[C@@H](C(C)(C)C)C(=O)N(C)[C@@H](C)C(=O)N[C@@H](CC(C)C)C(=O)N[C@H](C)C(=O)N(C)[C@@H](CC(C)C)C(=O)N(C)[C@@H](CC(C)C)C(=O)N(C)[C@@H](C(C)C)C(=O)N1C [Compound C71] (cyclo([MeBmt][Abu][Sar][dNMeA][Tle][NMeA]L[dA][NMeL][NMeL][NMeV])) ? 100.05

Bench note: what % inhibition of CsA binding to Cyclophilin A did "C/C=C/C[C@@H](C)[C@@H](O)[C@H]1C(=O)N[C@@H](CC)C(=O)N(C)CC(=O)N(C)[C@@H](CC(C)C)C(=O)N[C@@H](C(C)C)C(=O)N(C)[C@@H](C)C(=O)N[C@@H](C)C(=O)N[C@H](C)C(=O)N(C)[C@@H](CC(C)C)C(=O)N(C)[C@@H](CC(C)C)C(=O)N(C)[C@@H](C(C)C)C(=O)N1C" show? 92.71

Sample C/C=C/C[C@@H](C)[C@@H](O)[C@H]1C(=O)N[C@@H](CC)C(=O)N(C)CC(=O)N(C)[C@@H](Cc2ccc(O)cc2)C(=O)N[C@@H](CC(C)C)C(=O)N(C)[C@@H](CC(C)C)C(=O)N[C@@H](CC(C)C)C(=O)N[C@H](C)C(=O)N(C)[C@@H](CC(C)C)C(=O)N(C)[C@@H](CC(C)C)C(=O)N(C)[C@@H](C(C)C)C(=O)N1C [Compound C64] (cyclo([MeBmt][Abu][Sar][NMeY]L[NMeL]L[dA][NMeL][NMeL][NMeV])) — what was its % inhibition of CsA binding to Cyclophilin A? 71.50

Switching to the query record.
Please give the measured % inhibition of CsA binding to Cyclophilin A for this molecule: "C/C=C/C[C@@H](C)[C@@H](O)[C@H]1C(=O)N[C@@H](CC)C(=O)N(C)CC(=O)N(C)[C@H](C(C)C)C(=O)N[C@@H](C(C)C)C(=O)N(C)[C@@H](CC(C)C)C(=O)N[C@@H](C)C(=O)N[C@H](C)C(=O)N(C)[C@@H](CC(C)C)C(=O)N(C)[C@@H](CC(C)C)C(=O)N(C)[C@@H](C(C)C)C(=O)N1C" 98.74

* * *

MEASUREMENT TARGET: Cyclophilin A (Homo sapiens, UniProt P62937)
Construct: made in house
Sequence (P62937 whole entry, species assumed): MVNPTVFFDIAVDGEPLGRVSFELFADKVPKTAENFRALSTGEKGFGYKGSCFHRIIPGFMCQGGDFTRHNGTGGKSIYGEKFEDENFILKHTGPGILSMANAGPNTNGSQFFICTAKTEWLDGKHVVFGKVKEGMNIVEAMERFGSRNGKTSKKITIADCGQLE
TEST METHOD NOTES: AlphaLISA inhibition of binding of biotinylated Cyclosporin A to FLAG tagged Cyclophilin A
EXPERIMENTAL SETUP: test concentration not given
Where a SMILES comes first, the peptide text is derived from it. [ ]: non-standard residue; d: D form. MeBmt = C/C=C/C[C@@H](C)[C@@H](O)[C@H](NC)C(=O)O; NMeY = CN[C@@H](Cc1ccc(O)cc1)C(=O)O; NMeL = CN[C@@H](CC(C)C)C(=O)O; NMeNva = CCC[C@H](NC)C(=O)O; NMeV = CN[C@H](C(=O)O)C(C)C; Abu = CC[C@H](N)C(=O)O; Sar = CNCC(=O)O
READOUT: % inhibition of CsA binding to Cyclophilin A

Worked examples, 2 compounds total:
Please state recorded % inhibition of CsA binding to Cyclophilin A (tested on Cyclophilin A (Homo sapiens, UniProt P62937)) of C/C=C/C[C@@H](C)[C@@H](O)[C@H]1C(=O)N[C@@H](CC)C(=O)N(C)CC(=O)N(C)[C@@H](CCC)C(=O)N[C@@H](C(C)C)C(=O)N(C)[C@@H](CC(C)C)C(=O)N[C@@H](C)C(=O)N[C@H](C)C(=O)N(C)[C@@H](CC(C)C)C(=O)N(C)[C@@H](CC(C)C)C(=O)N(C)[C@@H](C(C)C)C(=O)N1C [Compound C44] 100.07%

Please provide the recorded % inhibition of CsA binding to Cyclophilin A for C/C=C/C[C@@H](C)[C@@H](O)[C@H]1C(=O)N[C@@H](CC)C(=O)N(C)CC(=O)N(C)[C@@H](CCC)C(=O)N[C@@H](C(C)C)C(=O)N(C)[C@@H](CC(C)C)C(=O)N[C@@H](CC(C)C)C(=O)N[C@H](C)C(=O)N(C)[C@@H](CC(C)C)C(=O)N(C)[C@@H](CC(C)C)C(=O)N(C)[C@@H](C(C)C)C(=O)N1C [Compound C54] (cyclo([MeBmt][Abu][Sar][NMeNva]V[NMeL]L[dA][NMeL][NMeL][NMeV])) , tested on Cyclophilin A (Homo sapiens, UniProt P62937). 99.10%

API: the following record is the query input.
# get_value(readout= % inhibition of CsA binding to Cyclophilin A, system= Cyclophilin A (Homo sapiens, UniProt P62937)) for C/C=C/C[C@@H](C)[C@@H](O)[C@H]1C(=O)N[C@@H](CC)C(=O)N(C)CC(=O)N(C)[C@@H](Cc2ccc(O)cc2)C(=O)N[C@@H](C(C)C)C(=O)N(C)[C@@H](CC(C)C)C(=O)N[C@@H](CC(C)C)C(=O)N[C@H](C)C(=O)N(C)[C@@H](CC(C)C)C(=O)N(C)[C@@H](CC(C)C)C(=O)N(C)[C@@H](C(C)C)C(=O)N1C [Compound C52] (cyclo([MeBmt][Abu][Sar][NMeY]V[NMeL]L[dA][NMeL][NMeL][NMeV])) 92.60%
